# ASSAY COMMENT: in vitro
# CONDITION DESCRIPTION: PAMPA, pH 7.4
EXPERIMENTAL ENDPOINT: Papp at 5 h, 20 µM

**Query** # Papp at 5 h, 20 µM lookup, item O=c1cc(-c2ccc(O)c(O)c2)oc2cc(O)cc(O)c12 [Compound 4, luteolin, reference compound]
**Result** 1 to 1.5 ×10⁻⁶ cm/s

----------
# ASSAY COMMENT: PAMPA passive membrane permeability
# CONDITION DESCRIPTION: 20 μM, pH 7.4, 5 hours, room temperature; mean ±SD
EXPERIMENTAL ENDPOINT: Pe

Examples from the recorded data:
INSERT INTO assay_data (compound_smiles, test_result) VALUES
  ('COc1ccc(-c2cc(=O)c3c(OC)c([C@@H]4O[C@H](C(=O)NCc5ccccc5)[C@@H](O)[C@H](O)[C@H]4O)c(OC)cc3o2)cc1OC', '1.35 ± 0.08 ×10^−6 cm/s'),
  ('COc1ccc(-c2cc(=O)c3c(OC)c([C@@H]4O[C@H](C(=O)N[C@@H](C)C(F)(F)F)[C@@H](O)[C@H](O)[C@H]4O)c(OC)cc3o2)cc1OC', '2.23 ± 0.21 ×10^−6 cm/s'),
  ('COc1ccc(-c2cc(=O)c3c(OC)c([C@@H]4O[C@H](C(=O)NC5CCCCC5)[C@@H](O)[C@H](O)[C@H]4O)c(OC)cc3o2)cc1OC', '1.77 ± 0.07 ×10^−6 cm/s');

**Query** # Pe lookup, item COc1ccc(-c2cc(=O)c3c(OC)c([C@@H]4O[C@H](C(=O)NC(C)C)[C@@H](O)[C@H](O)[C@H]4O)c(OC)cc3o2)cc1OC
**Result** 1.55 ± 0.06 ×10^−6 cm/s
